target system: T1, cyno FcRn/b2M (cyno, UniProt Q8SPV9 24-297; Q8SPW0 21-119, biotinylated)
T1 construct: bought recombinant biotinylated protein (Immunitrack ITF05 or ACRO FCM-C82W5); also called cFcRn; cFcRn/cb2M
T1 sequence (Q8SPV9 24-297 limits assumed, chain 1 of 2): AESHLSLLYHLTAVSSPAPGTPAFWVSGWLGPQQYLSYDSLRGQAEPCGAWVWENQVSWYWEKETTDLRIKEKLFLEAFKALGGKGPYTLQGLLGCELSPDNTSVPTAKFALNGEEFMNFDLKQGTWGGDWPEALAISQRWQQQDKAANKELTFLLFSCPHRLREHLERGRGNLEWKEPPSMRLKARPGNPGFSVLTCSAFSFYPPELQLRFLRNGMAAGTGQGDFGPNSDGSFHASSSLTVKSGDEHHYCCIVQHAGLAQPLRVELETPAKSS
T1 sequence (Q8SPW0 21-119 limits assumed, chain 2 of 2): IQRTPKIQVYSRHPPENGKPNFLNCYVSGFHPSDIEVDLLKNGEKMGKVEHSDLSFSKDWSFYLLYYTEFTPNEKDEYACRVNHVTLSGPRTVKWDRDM
test protocol: SPR pH 6.0
pKd: −log10 of the molar value.
measured quantity: pKd

The cases that follow already have their pKd on record.
T026301091 (VHH, name in Kabat numbering, tagless) VHH: EVQLVESGGGVVQPGGSLRLSCAASGFTFSEYDMYWVRQAPGKGLEWVSAISSGGGSTDYADSVKGRFTISRDNSKNTLYLQMNSLRPEDTALYYCAADTLYTSLTSYSYWGQGTLVTVSS: 6.80
T026301069 (VHH, name in Kabat numbering, tagless) VHH: EVQLVESGGGVVQPGGSLRLSCAASGFTFSSYDMYWVRQAPGKGLEWVSAISQGGGSTDYADSVKGRFTISRDNSKNTLYLQMNSLRPEDTALYYCAADTLYTSLTSYSYWGQGTLVTVSS: 7.64
T026301063 (VHH, name in Kabat numbering, tagless) VHH: EVQLVESGGGVVQPGGSLRLSCAASTFTFSSYAMYWVRQAPGKGLEWVSAISQGGGSTDYADSVKGRFTISRDNSKNTLYLQMNSLRPEDTALYYCAADTLYTSLTWYSYWGQGTLVTVSS: 7.39
T026301079 (VHH, name in Kabat numbering, tagless) VHH: EVQLVESGGGVVQPGGSLRLSCAASGFTFSSYAMYWVRQAPGKGLEWVSAISQGGGSTDYADSVKGRFTISRDNSKNTLYLQMNSLRPEDTALYYCAADTLYTSLTSYSYWGQGTLVTVSS: 7.12
T026301064 (VHH, name in Kabat numbering, tagless) VHH: EVQLVESGGGVVQPGGSLRLSCAASGFTFSSYDMYWVRQAPGKGLEWVSAISQGGGSTDYADSVKGRFTISRDNSKNTLYLQMNSLRPEDTALYYCAADTLYTSLTWYSYWGQGTLVTVSS: 8.42

P = T026301075 (VHH, name in Kabat numbering, tagless) VHH: EVQLVESGGGVVQPGGSLRLSCAASTFTFSEYAMYWVRQAPGKGLEWVSAISSGGGSTDYADSVKGRFTISRDNSKNTLYLQMNSLRPEDTALYYCAADTLYTSLTWYSYWGQGTLVTVSS
Q = T026301111 (VHH, name in Kabat numbering, tagless) VHH: EVQLVESGGGVVQPGGSLRLSCAASGFTFSEYAMYWVRQAPGKGLEWVSAISQGGGSTDYADSVKGRFTISRDNSKNTLYLQMNSLRPEDTALYYCAADTLYTSLTWYSYWGQGTLVTVSS
(Q) Hi, I'm comparing P with Q and wondering which one has the bigger number for pKd. Any idea? // respond with label for picked entry
(A) P
(P: 7.68, Q: 7.32)

// data source = patent US20240132624A1
